# Tested on: Reo-virus-1
# testMethodNotes: Antiviral CPE assay, Reovirus-1 in Vero cells
# Assay type: cell-based
# measurementContext: Vero
endpointName: EC50

compound="OCC1C(O)CC(n2cc(-c3ccccc3)nn2)C2CC12 (centres unmarked)" system=Reo-virus-1 datavalue="> 50 µg/mL"
compound="Cc1cn(C2CC(O)C(CO)C3CC32)c(=O)[nH]c1=O (centres unmarked)" system=Reo-virus-1 datavalue="> 50 µg/mL"
compound="NC(=O)c1cn(C2CC(O)C(CO)C3CC32)nn1 (centres unmarked)" system=Reo-virus-1 datavalue="> 50 µg/mL"
compound="NC(=O)c1nnn(C2CC(O)C(CO)C3CC32)c1N (centres unmarked)" system=Reo-virus-1 datavalue="> 50 µg/mL"

What reported EC50 corresponds to Nc1nc2c(ncn2C2CC(O)C(CO)C3CC32)c(=O)[nH]1 (centres unmarked) on Reo-virus-1?
> 50 µg/mL

The values you see were collected from paper PMC9680032.
